- TEST SYSTEM: Gamma-aminobutyric acid receptor subunit alpha-1 (Rattus norvegicus, UniProt P62813)
- Sequence (P62813 whole entry): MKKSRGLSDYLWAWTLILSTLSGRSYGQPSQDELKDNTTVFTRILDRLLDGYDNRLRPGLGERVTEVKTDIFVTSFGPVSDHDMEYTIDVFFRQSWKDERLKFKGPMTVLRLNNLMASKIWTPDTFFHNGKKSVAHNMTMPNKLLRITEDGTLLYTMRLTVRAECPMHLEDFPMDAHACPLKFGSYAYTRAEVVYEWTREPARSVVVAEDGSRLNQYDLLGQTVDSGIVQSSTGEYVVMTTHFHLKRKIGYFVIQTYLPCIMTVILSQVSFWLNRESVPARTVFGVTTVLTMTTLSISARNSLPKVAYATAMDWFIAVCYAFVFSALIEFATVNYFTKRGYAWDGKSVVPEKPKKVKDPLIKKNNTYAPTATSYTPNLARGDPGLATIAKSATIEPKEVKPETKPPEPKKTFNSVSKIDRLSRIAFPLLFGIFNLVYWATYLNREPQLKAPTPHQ
pKi: −log10 of the molar value.
OBSERVATION TYPE: pKi

> print(dat)
                           structure.smiles  reading
1  COc1cc(OC)c(C(=O)CCCCN2CCC3(CC2)NC(=O)NC3=O)cc1NS(=O)(=O)c1ccc(C(F)(F)F)cc1   < 5.00

----------
Sequence of the target: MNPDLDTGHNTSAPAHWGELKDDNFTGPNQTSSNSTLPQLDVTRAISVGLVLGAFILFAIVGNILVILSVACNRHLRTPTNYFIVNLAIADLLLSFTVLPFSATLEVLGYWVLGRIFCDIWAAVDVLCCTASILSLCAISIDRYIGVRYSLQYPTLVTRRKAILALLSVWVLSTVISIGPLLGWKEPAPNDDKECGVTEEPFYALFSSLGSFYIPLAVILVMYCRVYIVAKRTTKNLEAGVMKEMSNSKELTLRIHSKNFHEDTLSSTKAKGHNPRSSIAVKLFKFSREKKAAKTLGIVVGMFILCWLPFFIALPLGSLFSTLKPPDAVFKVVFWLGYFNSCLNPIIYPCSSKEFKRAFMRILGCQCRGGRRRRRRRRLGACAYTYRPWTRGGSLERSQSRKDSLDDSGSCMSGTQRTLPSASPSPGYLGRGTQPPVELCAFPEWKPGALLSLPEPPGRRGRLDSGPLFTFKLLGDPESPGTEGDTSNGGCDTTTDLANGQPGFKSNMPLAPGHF
pKi: −log10 of the molar value.
OBSERVATION TYPE: pKi

> print(dat)
                           structure.smiles  reading
1  COc1cc(OC)c(C(=O)CCCCN2CCC3(CC2)NC(=O)NC3=O)cc1NS(=O)(=O)c1ccc(C(F)(F)F)cc1   < 5.00

----------
- TEST SYSTEM: Glutamate receptor ionotropic, NMDA 1 (Rattus norvegicus)
OBSERVATION TYPE: Ki

> print(dat)
                           structure.smiles                               test.system  observation.type  reading
1  COc1cc(OC)c(C(=O)CCCCN2CCC3(CC2)NC(=O)NC3=O)cc1NS(=O)(=O)c1ccc(C(F)(F)F)cc1  Glutamate receptor ionotropic, NMDA 1 (Rattus norvegicus)                Ki  > 10 µM

----------
- TEST SYSTEM: Substance-P receptor (Homo sapiens)
- Sequence (P25103 whole entry): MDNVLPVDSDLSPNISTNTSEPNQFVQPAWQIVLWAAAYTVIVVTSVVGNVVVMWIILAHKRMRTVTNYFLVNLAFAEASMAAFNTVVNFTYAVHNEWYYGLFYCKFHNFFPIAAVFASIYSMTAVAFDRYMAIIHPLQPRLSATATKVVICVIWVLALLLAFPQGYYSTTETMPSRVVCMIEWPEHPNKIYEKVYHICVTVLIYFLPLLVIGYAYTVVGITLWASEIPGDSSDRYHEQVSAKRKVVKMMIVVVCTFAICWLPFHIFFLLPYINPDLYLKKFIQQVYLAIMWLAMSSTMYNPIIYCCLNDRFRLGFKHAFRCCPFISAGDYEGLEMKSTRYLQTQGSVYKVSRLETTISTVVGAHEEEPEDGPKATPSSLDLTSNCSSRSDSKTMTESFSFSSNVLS
OBSERVATION TYPE: Ki

> print(dat)
                           structure.smiles  reading
1  COc1cc(OC)c(C(=O)CCCCN2CCC3(CC2)NC(=O)NC3=O)cc1NS(=O)(=O)c1ccc(C(F)(F)F)cc1  > 10 µM
